Tested on: Human alphaherpesvirus 2
Experiment: Antiviral activity against acyclovir-sensitive HSV2 HG32 in african green monkey Vero cells assessed as inhibition of virus plaque formation
Assay type: functional, organism-based
Conditions: Human alphaherpesvirus 2, HG32, Vero
Binary label based on EC50 with cut-off 20 µM: below gives true (1), not below gives false (0).

Solved entries (count: 3):
COC(=O)[C@H](C)NP(=O)(OCCOCn1cnc2c(=O)[nH]c(N)nc21)Oc1ccccc1 (stereo partly specified) = false (0)
Nc1nc2c(ncn2COCCO)c(=O)[nH]1 = true (1)
COC(=O)[C@H](C)NP(=O)(OCCOCn1cnc2c(=O)[nH]c(N)nc21)Oc1cccc2ccccc12 (stereo partly specified) = false (0)

I'd appreciate it if you could check whether C[C@H](NP(=O)(OCCOCn1cnc2c(=O)[nH]c(N)nc21)Oc1cccc2ccccc12)C(=O)OCc1ccccc1 (stereo partly specified) has EC50 smaller than 20 µM. true (1)

###

Assay: Cytotoxicity against HEL cells assessed as alteration of cell morphology
Format: cell-based
Conditions: human
quantityName: MCC

Nc1nc2c(ncn2COCCO)c(=O)[nH]1 = > 250 µM
COC(=O)[C@H](C)NP(=O)(OCCOCn1cnc2c(=O)[nH]c(N)nc21)Oc1ccccc1 (stereo partly specified) = > 100 µM

Could I get MCC for every one of these entries?
1. COC(=O)[C@H](C)NP(=O)(OCCOCn1cnc2c(=O)[nH]c(N)nc21)Oc1cccc2ccccc12 (stereo partly specified)
2. C[C@H](NP(=O)(OCCOCn1cnc2c(=O)[nH]c(N)nc21)Oc1ccccc1)C(=O)OCc1ccccc1 (stereo partly specified)
3. Nc1nc2c(ncn2COCCOP(=O)(N[C@@H](Cc2ccccc2)C(=O)OCc2ccccc2)Oc2ccccc2)c(=O)[nH]1 (stereo partly specified)
4. C[C@H](NP(=O)(OCCOCn1cnc2c(=O)[nH]c(N)nc21)Oc1cccc2ccccc12)C(=O)OCc1ccccc1 (stereo partly specified)

1: > 50 µM; 2: > 50 µM; 3: > 50 µM; 4: > 50 µM

###

Could you please report measured EC50 for the items listed next?
Tested on: Human alphaherpesvirus 3
Assay: Antiviral activity against TK+ VZV YS infected HEL cells assessed as reduction in virus plaque formation after 5 days
Format: functional, organism-based
Conditions: Human alphaherpesvirus 3, YS, 120 h
Give bare numbers, in µM.

Sample records with EC50:
C[C@H](NP(=O)(OCCOCn1cnc2c(=O)[nH]c(N)nc21)Oc1cccc2ccccc12)C(=O)OCc1ccccc1 (stereo not given in full) = 3.3
C[C@H](NP(=O)(OCCOCn1cnc2c(=O)[nH]c(N)nc21)Oc1ccccc1)C(=O)OCc1ccccc1 (stereo not given in full) = 1
COC(=O)[C@H](C)NP(=O)(OCCOCn1cnc2c(=O)[nH]c(N)nc21)Oc1cccc2ccccc12 (stereo not given in full) = 10.9
Nc1nc2c(ncn2COCCOP(=O)(N[C@@H](Cc2ccccc2)C(=O)OCc2ccccc2)Oc2ccccc2)c(=O)[nH]1 (stereo not given in full) = 6.6

// next entry
# get_value(readout='EC50', item= COC(=O)[C@H](C)NP(=O)(OCCOCn1cnc2c(=O)[nH]c(N)nc21)Oc1ccccc1 (stereo not given in full) ) 20

###

Could you please report measured CC50 for the items listed next?
Assay: Cytotoxicity against HEL cells assessed as inhibition of cell proliferation
Format: cell-based
Conditions: human
Answers are plain numbers, in µM.

Sample records with CC50:
Nc1nc2c(ncn2COCCOP(=O)(N[C@@H](Cc2ccccc2)C(=O)OCc2ccccc2)Oc2ccccc2)c(=O)[nH]1 (stereo partly specified) = 86.9
Nc1nc2c(ncn2COCCO)c(=O)[nH]1 = 1350

Could I get CC50 for every one of these entries?
1. COC(=O)[C@H](C)NP(=O)(OCCOCn1cnc2c(=O)[nH]c(N)nc21)Oc1ccccc1 (stereo partly specified)
2. C[C@H](NP(=O)(OCCOCn1cnc2c(=O)[nH]c(N)nc21)Oc1cccc2ccccc12)C(=O)OCc1ccccc1 (stereo partly specified)

[162, 20]
